# Assay Target: Adenosine receptor A3 (Rattus norvegicus)
# Sequence (P28647 whole entry): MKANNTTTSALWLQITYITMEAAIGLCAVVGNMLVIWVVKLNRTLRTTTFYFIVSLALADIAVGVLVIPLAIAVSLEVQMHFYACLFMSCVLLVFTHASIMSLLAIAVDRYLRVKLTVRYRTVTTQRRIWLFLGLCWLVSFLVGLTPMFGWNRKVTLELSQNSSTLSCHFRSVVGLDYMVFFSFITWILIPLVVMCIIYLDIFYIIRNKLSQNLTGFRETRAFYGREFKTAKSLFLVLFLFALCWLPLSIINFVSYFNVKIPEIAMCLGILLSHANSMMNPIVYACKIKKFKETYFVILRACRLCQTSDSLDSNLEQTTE
# Method Summary: Binding affinity of adenosine derivative for recombinant rat Adenosine A3 receptor expressed on CHO cell
A collection of compounds and their measured Ki
Test Readout: Ki

INSERT INTO measurements (compound, reported_value) VALUES
  ('OCC12CC1C(n1cnc3c(NCc4cccc(I)c4)nc(Cl)nc31)C(O)C2O (centres undefined)', '0.0013 µM'),
  ('O=C1NCC[C@@]12O[C@@H](n1cnc3c(NCc4cccc(I)c4)ncnc31)[C@H](O)[C@@H]2O', '0.049 µM'),
  ('CCCOC(=O)c1c(-c2ccccc2)nc(CC)c(C(=O)SCC)c1CCC', '0.234 µM'),
  ('OC[C@H]1O[C@@H](n2cnc3c(NCc4cccc(I)c4)nc(Cl)nc32)[C@H](O)[C@@H]1O', '0.0016 µM');

###

# Assay Target: Adenosine receptor A3 (Homo sapiens)
# Method Summary: Affinity towards human Adenosine A3 receptor in CHO cell
# Format: cell-based
# Sequence (P0DMS8 whole entry): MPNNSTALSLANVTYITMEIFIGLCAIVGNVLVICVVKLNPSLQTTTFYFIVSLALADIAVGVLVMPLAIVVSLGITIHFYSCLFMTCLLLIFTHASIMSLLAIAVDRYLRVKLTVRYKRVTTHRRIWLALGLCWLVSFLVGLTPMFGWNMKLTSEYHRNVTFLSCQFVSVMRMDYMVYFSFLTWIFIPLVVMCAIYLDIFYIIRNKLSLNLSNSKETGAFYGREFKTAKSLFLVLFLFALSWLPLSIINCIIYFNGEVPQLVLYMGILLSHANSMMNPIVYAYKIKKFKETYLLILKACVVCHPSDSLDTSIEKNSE
pKi: −log10 of the molar value.
Test Readout: pKi

INSERT INTO measurements (sample_smiles, test_readout, reported_value) VALUES
  ('CNC(=O)[C@H]1O[C@@H](n2cnc3c(NCc4cccc(I)c4)nc(Cl)nc32)[C@@H]2O[C@@H]21', 'pKi', 5.96);

###

# Assay Target: Adenosine receptor A3 (Homo sapiens)
# Method Summary: Binding affinity towards Adenosine A3 receptor (W243 mutant receptor)
# Sequence (P0DMS8 whole entry, looked up): as the sequence (P0DMS8 whole entry) above
A collection of compounds and their measured Ki
Test Readout: Ki (nM)

INSERT INTO measurements (compound, test_readout, units, reported_value) VALUES
  ('OCC12CC1C(n1cnc3c(NCc4cccc(I)c4)nc(Cl)nc31)C(O)C2O (configuration not stated)', 'Ki', 'nM', 1.3),
  ('CCCOC(=O)c1c(-c2ccccc2)nc(CC)c(C(=O)SCC)c1CCC', 'Ki', 'nM', 2150);

###

# Assay Target: Adenosine receptor A3 (Homo sapiens, UniProt P0DMS8, H95A)
# Sequence (P0DMS8 whole entry H95A): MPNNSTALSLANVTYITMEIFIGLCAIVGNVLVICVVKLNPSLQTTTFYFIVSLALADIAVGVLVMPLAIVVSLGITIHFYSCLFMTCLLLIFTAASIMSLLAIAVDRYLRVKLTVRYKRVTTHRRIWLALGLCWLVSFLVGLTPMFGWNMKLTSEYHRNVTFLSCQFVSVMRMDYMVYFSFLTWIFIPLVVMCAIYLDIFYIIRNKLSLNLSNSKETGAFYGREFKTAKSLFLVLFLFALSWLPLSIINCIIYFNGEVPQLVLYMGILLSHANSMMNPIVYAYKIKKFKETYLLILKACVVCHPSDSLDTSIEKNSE
# Method Summary: Binding affinity towards Adenosine A3 receptor (H95A mutant receptor)
pKi: −log10 of the molar value.
A collection of compounds and their measured pKi
Test Readout: pKi

INSERT INTO assay_data (compound, assay_target, reported_value) VALUES
  ('OCC12CC1C(n1cnc3c(NCc4cccc(I)c4)ncnc31)C(O)C2O (stereo not drawn)', 'Adenosine receptor A3 (Homo sapiens, UniProt P0DMS8, H95A)', 7.00),
  ('OC[C@H]1O[C@@H](n2cnc3c(NC4CCCC4)ncnc32)[C@H](O)[C@@H]1O', 'Adenosine receptor A3 (Homo sapiens, UniProt P0DMS8, H95A)', 6.21),
  ('OCC12CC1C(n1cnc3c(NCc4cccc(I)c4)nc(Cl)nc31)C(O)C2O (stereo not drawn)', 'Adenosine receptor A3 (Homo sapiens, UniProt P0DMS8, H95A)', 6.34);

###

# Assay Target: Adenosine receptor A3 (Homo sapiens, UniProt P0DMS8)
# Method Summary: Affinity for human Adenosine A3 receptor expressed in CHO cell
# Type: cell-based
API: label(entry) gives Met if the entry's Ki is strictly smaller than 90 nM; on equality or larger values it gives Not met.

INSERT INTO measurements (compound, label) VALUES
  ('CCCCn1c(=O)c2c(ncn2[C@@H]2O[C@H](C(=O)NC)[C@@H](O)[C@H]2O)n(CCCC)c1=O', 'Not met'),
  ('OCC12CC1C(n1cnc3c(NCc4cccc(I)c4)nc(Cl)nc31)C1OC12 (stereo not drawn)', 'Not met'),
  ('CNC(=O)C12CC1C(n1cnc3c(NCc4cccc(I)c4)ncnc31)C(O)C2O (stereo not drawn)', 'Met'),
  ('CNC(=O)C12CC1C(n1cnc3c(NC)nc(Cl)nc31)C(O)C2O (stereo not drawn)', 'Met'),
  ('OCC12CC1C(n1cnc3c(NCc4cccc(I)c4)nc(Cl)nc31)C(O)C2O (stereo not drawn)', 'Met'),
  ('Nc1nc(Cl)nc2c1ncn2[C@@H]1O[C@H](CO)[C@@H](O)[C@H]1O', 'Met'),
  ('Nc1nc(F)nc2c1ncn2[C@@H]1O[C@H](CO)[C@@H](O)[C@H]1O', 'Not met'),
  ('OCC12CC1C(n1cnc3c(NCc4cccc(I)c4)ncnc31)C(O)C2O (stereo not drawn)', 'Met');

meta.source: ChEMBL document CHEMBL1135592
